EC50 Human APJ Receptor (GTPγS assay) listing for selected binders.
Molecular target: T1, human APJ receptor (human, UniProt P35414 1-380)
T1 sequence (looked up): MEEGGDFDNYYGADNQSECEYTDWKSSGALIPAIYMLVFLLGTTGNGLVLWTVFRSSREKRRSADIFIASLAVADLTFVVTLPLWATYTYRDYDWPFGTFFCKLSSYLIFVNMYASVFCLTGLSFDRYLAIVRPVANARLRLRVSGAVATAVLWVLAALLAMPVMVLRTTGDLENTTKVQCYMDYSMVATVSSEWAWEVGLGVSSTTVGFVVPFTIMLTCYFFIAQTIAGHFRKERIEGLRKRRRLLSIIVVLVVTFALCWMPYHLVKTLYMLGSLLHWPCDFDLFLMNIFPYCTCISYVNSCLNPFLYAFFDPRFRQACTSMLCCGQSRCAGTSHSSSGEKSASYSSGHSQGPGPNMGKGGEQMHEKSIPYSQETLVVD
Assay: cell-based or functional assay
Starred links: 1 amine or outer side, 2 acyl side, 3 side chain; linkers in the order of their positions; H or OH if unused. Non-standard residues stand in square brackets, D forms with d. Primed or numbered codes have the meaning given here. *: point of attachment. Oic = O=C(O)[C@@H]1C[C@@H]2CCCC[C@@H]2N1; Phe(4-Cl) = N[C@@H](Cc1ccc(Cl)cc1)C(=O)O; γGlu = O=C(O)[C@H](CCC(=O)[*:2])N[*:1]; NMeR = CN[C@@H](CCCNC(=N)N)C(=O)O; Tridecanoyl = CCCCCCCCCCCCC(=O)*; hArg = N=C(N)NCCCC[C@H](N)C(=O)O; Cha = N[C@@H](CC1CCCCC1)C(=O)O; Nle = CCCC[C@H](N)C(=O)O; Pip′ = not defined here; AEEA = NCCOCCOCC(=O)O; Aib = CC(C)(N)C(=O)O; βAla = NCCC(=O)O
Give a bare numeral; the unit pM is implied.

# count of solved cases: 2
{"binder": "Tridecanoyl-[γGlu][AEEA][AEEA]Q[hArg]P[dR][Cha]SHKG[Oic][Nle]P[D‑4ClF]-OH [Apelin polypeptide SEQ ID NO: 364]", "observed-measurement": 6000}
{"binder": "Tridecanoyl-[γGlu][AEEA][AEEA]QRP[NMeR]L[βAla]HKGP[Nle]P[Phe(4-Cl)]-OH (SMILES CCCCCCCCCCCCC(=O)N[C@@H](CCC(=O)NCCOCCOCC(=O)NCCOCCOCC(=O)N[C@@H](CCC(N)=O)C(=O)N[C@@H](CCCNC(=N)N)C(=O)N1CCC[C@H]1C(=O)N(C)[C@@H](CCCNC(=N)N)C(=O)N[C@@H](CC(C)C)C(=O)NCCC(=O)N[C@@H](Cc1c[nH]cn1)C(=O)N[C@@H](CCCCN)C(=O)NCC(=O)N1CCC[C@H]1C(=O)N[C@@H](CCCC)C(=O)N1CCC[C@H]1C(=O)N[C@@H](Cc1ccc(Cl)cc1)C(=O)O)C(=O)O) [Apelin polypeptide SEQ ID NO: 464]", "observed-measurement": 54.2}

Could you now consider this next binder?
Report EC50 Human APJ Receptor (GTPγS assay) for Tridecanoyl-[γGlu][AEEA][AEEA][dQ]R[Pip′][NMeR][Cha]SHKG[Oic][Nle][Aib][Phe(4-Cl)]-OH [Apelin polypeptide SEQ ID NO: 517] please. 620

The values you see were collected from patent US10941182.
